test: chemical genetic growth profiling, strain panel (AID 1159580);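 further: tested at 20 µM; growth read once vehicle control cultures reached saturation at 30 °C; lower values mean less growth of the strain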; conditions: S. cerevisiae deletion strains, growth OD, locus YMR231W, strain pep5
Hit rate of the full screen: of about 5,500 compounds, about 2,000 (36%) were called active. Inconclusive results (about 18%) are left out. No stated cut-off is given here; in the data, active means normalized growth mostly below about 0.91 (no sharp cut-off); inconclusive means no clear call, values can overlap the other calls; inactive means mostly above about 0.92. This is one part of the list.
Form entry, call: pick from Y (active), N (inactive)

Use the examples below as a reference point.
>>> label_value("CC(=O)OCC(=O)[C@@]1(O)[C@H](C)CC2C3CCC4=CC(=O)C=C[C@]4(C)[C@@]3(F)[C@@H](O)C[C@@]21C (stereo partly specified)")
"N"
>>> label_value("C=C1c2cccc(O)c2C(O)=C2C(=O)[C@]3(O)C(O)=C(C(N)=O)C(=O)[C@@H](N(C)C)[C@@H]3[C@@H](O)[C@H]12")
"N"
>>> label_value("O=C(O)c1ccccc1")
"N"
>>> label_value("CC1=CCCC2C1(C)CCC(C)C2(C)CC/C(C)=C/C[n+]1cn(C)c2c(N)ncnc21 (stereo unspecified)")
"N"
>>> label_value("O=C(OOC(=O)c1ccccc1)c1ccccc1")
"N"

Challenge: Outcome? C=C1C[C@]23C[C@@]1(O)CC[C@H]2[C@@]12C=C[C@H](O)[C@@](C)(C(=O)O1)[C@H]2[C@@H]3C(=O)O
Response given: N

Challenge: Thanks! And CC(C)CCCC(C)[C@H]1CCC2C3CC=C4CC(=O)CC[C@]4(C)C3CC[C@@]21C (stereo partly specified) ?
Response given: N

Challenge: Moving on to the next molecule: CC(=O)O[C@H]1CC[C@@]2(C)C(=CC(=O)C3C4CCC(C(C)CCCC(C)C)[C@@]4(C)CCC32)C1 (stereo partly specified)
Response given: N

Challenge: Now try CC(=O)O[C@@H]1CC2C(C)(C)[C@H](O)C=C[C@]2(C)C2CC[C@]3(C)C(=CC(=O)O[C@H]3c3ccoc3)[C@@]21C (stereo partly specified) .
Response given: N

Challenge: Also check CC(C)CCCC(C)[C@H]1CCC2C3CC=C4C[C@@H](O)CC[C@]4(C)C3CC[C@@]21C (stereo partly specified)
Response given: N

Challenge: # repeat for CCCc1cc(=O)[nH]c(=S)[nH]1
Response given: N

Challenge: Also check CC12CCC3C(CC3(C)C)C(C)(CCC1=O)O2 (stereo unspecified)
Response given: N

Value source: PubChem BioAssay AID1159580
